// data source = ChEMBL document CHEMBL2062435

System: Klebsiella pneumoniae
procedure.details: Antimicrobial activity against extended spectrum beta-lactamases-producing Klebsiella pneumoniae 10-2 after 18-24 hrs by two-fold serial dilution method
Type: functional
test.readout: MIC

Below, 5 compounds whose answers are already recorded.
COc1cc(CO/N=C2\CN(c3nc4c(cc3F)c(=O)c(C(=O)O)cn4C3CC3)CC2CN)cc(OC)c1OC.CS(=O)(=O)O (racemic): > 128 µg/mL
COc1ccc(CO/N=C2\CN(c3nc4c(cc3F)c(=O)c(C(=O)O)cn4C3CC3)CC2CN)cc1.CS(=O)(=O)O (racemic): 128 µg/mL
COc1ccc(CO/N=C2\CN(c3nc4c(cc3F)c(=O)c(C(=O)O)cn4C3CC3)CC2CN)c([N+](=O)[O-])c1OC.CS(=O)(=O)O (racemic): > 128 µg/mL
COc1ccc(CO/N=C2\CN(c3nc4c(cc3F)c(=O)c(C(=O)O)cn4C3CC3)CC2CN)c(Cl)c1OC.CS(=O)(=O)O (racemic): > 128 µg/mL
CS(=O)(=O)O.NCC1CN(c2nc3c(cc2F)c(=O)c(C(=O)O)cn3C2CC2)C/C1=N\OCc1cc2c(cc1[N+](=O)[O-])OCO2 (racemic): > 128 µg/mL

Let us move to another entry and its MIC.
Data request: Please look up its MIC: CS(=O)(=O)O.NCC1CN(c2nc3c(cc2F)c(=O)c(C(=O)O)cn3C2CC2)C/C1=N\OCc1ccc(OCc2ccccc2)cc1 (racemic)
Data returned: > 128 µg/mL
